experiment: Cmax in rat at 10 mg/kg, po; type: ADME, organism-based; set-up: dose 10 mg/kg, route oral; details: in vivo
Observable: Cmax (nM)

Query block: # query: Cmax of entry `Cc1cnc(NCCc2ccccn2)c(=O)n1CC(=O)NCc1cc(Cl)ccc1OCC(F)(F)F`
Result block: 1060

Query block: # query: Cmax of entry `COc1ccc(C#N)c(CNC(=O)Cn2c(C)cnc(NCCc3ccccn3)c2=O)c1`
Result block: 2280

a: Cc1cnc(NCCc2ccccn2)c(=O)n1CC(=O)NCc1cccc(Cl)c1
b: Cc1ccc(Cl)cc1CNC(=O)Cn1c(C)cnc(NCCc2ccccn2)c1=O
c: COc1ccc(Cl)cc1CNC(=O)Cn1c(C)cnc(NCCc2ccccn2)c1=O
Query block: rank_up(items): orders items by reported Cmax in ascending numerical order. Answer format: list of labels, ordered as asked.
Result block: c, b, a
(c: 570 nM, b: 1290 nM, a: 2980 nM)

----------
experiment: Inhibition of trypsin
Observable: Ki (µM)

Record excerpt, results attached:
Query block: # query: Ki of entry `COc1ccc(Cl)cc1CNC(=O)Cn1c(C)cnc(NCCc2ccccn2)c1=O`
Result block: 161

Query block: # query: Ki of entry `Cc1cnc(NCCc2ccccn2)c(=O)n1CC(=O)NCc1cc(Cl)ccc1OCC(F)(F)F`
Result block: 32

Query block: # query: Ki of entry `Cc1cnc(NCCc2ccccn2)c(=O)n1CC(=O)NCc1cccc(Cl)c1`
Result block: 37

Query block: # query: Ki of entry `COc1ccc(C#N)c(CNC(=O)Cn2c(Cl)cnc(NCCc3cccc[n+]3[O-])c2=O)c1`
Result block: 278

1: Cc1ccc(OCC(F)(F)F)c(CNC(=O)Cn2c(C)cnc(NCCc3ccccn3)c2=O)c1
2: Cc1ccc(Cl)cc1CNC(=O)Cn1c(C)cnc(NCCC2CCCCN2)c1=O (racemic)
3: O=C(Cn1c(Cl)cnc(NCCc2cccc[n+]2[O-])c1=O)NCc1cc(Cl)ccc1OCC(F)(F)F
Query block: Hey, quick one: sort these by Ki, largest value first please. Answer format: list of labels, ordered as asked.
Result block: 1, 2, 3
(1: 91 µM, 2: 38 µM, 3: 17 µM)

----------
Assay read-out pKi; system under study: Prothrombin (Homo sapiens).
pKi: −log10 of the molar value.
Observable: pKi

Record excerpt, results attached:
Query block: # query: pKi of entry `Cc1cnc(NCCc2ccccn2)c(=O)n1CC(=O)NCc1cccc(Cl)c1`
Result block: 8.52

Query block: # query: pKi of entry Cc1ccc(Cl)cc1CNC(=O)Cn1c(C)cnc(NCCC2CCCCN2)c1=O (racemic)
Result block: 8.64

I: Cc1ccc(OCC(F)(F)F)c(CNC(=O)Cn2c(C)cnc(NCCc3ccccn3)c2=O)c1
II: Cc1cnc(NCCc2ccccn2)c(=O)n1CC(=O)NCc1cc(Cl)ccc1OCC(=O)NC1CC1
Query block: For the pair I and II , which entry has the numerically smaller recorded pKi? Returns: label corresponding to the selected item.
Result block: I
(I: 8.82, II: 10.82)

----------
test: Fraction unbound in human plasma; assay type: ADME, cell-free
Observable: fraction unbound

Query block: # query: fraction unbound of entry NC(C(=O)N1CCC[C@H]1C(=O)NCc1cc(Cl)ccc1OCC(=O)NC1CC1)C1CCCCC1 (single isomer, unassigned)
Result block: 0.12

P: Cc1cnc(NCCc2ccccn2)c(=O)n1CC(=O)NCc1cccc(Cl)c1
Q: Cc1cnc(NCCc2ccccn2)c(=O)n1CC(=O)NCc1cc(Cl)ccc1OCC(=O)NC1CCCNC1 (centres undefined)
R: Cc1cnc(NCCc2ccccn2)c(=O)n1CC(=O)NCc1cc(Cl)ccc1OCC(=O)NC1CC1
Query block: rank_up(items): orders items by reported fraction unbound in ascending numerical order. Answer format: list of labels, ordered as asked.
Result block: R, P, Q

----------
experiment: Half life in rat at 10 mg/kg, po; format: ADME, organism-based; set-up: dose 10 mg/kg, route oral; settings: in vivo
Observable: half-life (h)

P: Cc1ccc(Cl)cc1CNC(=O)Cn1c(C)cnc(NCCc2ccccn2)c1=O
Q: COc1ccc(C#N)c(CNC(=O)Cn2c(C)cnc(NCCc3ccccn3)c2=O)c1
R: Cc1cnc(NCCc2ccccn2)c(=O)n1CC(=O)NCc1cccc(Cl)c1
Query block: Kindly sort the 3 molecules above from the smallest to the largest half-life. Answer format: list of labels, ordered as asked.
Result block: R, Q, P
(R: 1 h, Q: 2.08 h, P: 3.67 h)

I: COc1ccc(Cl)cc1CNC(=O)Cn1c(C)cnc(NCCc2ccccn2)c1=O
II: Cc1cnc(NCCc2ccccn2)c(=O)n1CC(=O)NCc1cc(Cl)ccc1OCC(F)(F)F
Query block: For the pair I and II , which entry has the numerically smaller recorded half-life? Returns: label corresponding to the selected item.
Result block: II

----------
assay: Inhibition of trypsin
Observable: Ki (µM)

P: COc1ccc(Cl)cc1CNC(=O)Cn1c(C)cnc(NCCC2CCCCN2)c1=O (racemic)
Q: O=C(Cn1c(Cl)cnc(NCCc2cccc[n+]2[O-])c1=O)NCc1cc(Cl)ccc1Cl
Query block: Sort P and Q by Ki descending and give the first. Returns: label corresponding to the selected item.
Result block: Q
(Q: 138 µM, P: 58.9 µM)

I: COc1ccc(Cl)cc1CNC(=O)Cn1c(Cl)cnc(NCCc2cccc[n+]2[O-])c1=O
II: Cc1ccc(C#N)c(CNC(=O)Cn2c(C)cnc(NCCc3ccccn3)c2=O)c1
Query block: For the pair I and II , which entry has the numerically smaller recorded Ki? Returns: label corresponding to the selected item.
Result block: I
(I: 64 µM, II: 102 µM)

P: COc1ccc(C#N)c(CNC(=O)Cn2c(C)cnc(NCCC3CCCCN3)c2=O)c1 (racemic)
Q: Cc1cnc(NCCc2ccccn2)c(=O)n1CC(=O)NCc1cc(Cl)ccc1Cl
Query block: For the pair P and Q , which entry has the numerically smaller recorded Ki? Returns: label corresponding to the selected item.
Result block: Q
(Q: 52 µM, P: 136 µM)

----------
assay: Cmax in dog at 1 mg/kg, po; type: ADME, organism-based, Canis lupus familiaris; parameters: dose 1 mg/kg, route oral; conditions: in vivo
Observable: Cmax (nM)

Query block: # query: Cmax of entry `Cc1cnc(NCCc2ccccn2)c(=O)n1CC(=O)NCc1cc(Cl)ccc1OCC(F)(F)F`
Result block: 3240

Query block: # query: Cmax of entry `Cc1ccc(C#N)c(CNC(=O)Cn2c(C)cnc(NCCc3ccccn3)c2=O)c1`
Result block: 2300

Query block: # query: Cmax of entry `Cc1ccc(Cl)cc1CNC(=O)Cn1c(C)cnc(NCCc2ccccn2)c1=O`
Result block: 2520

Query block: # query: Cmax of entry `Cc1cnc(NCCc2ccccn2)c(=O)n1CC(=O)NCc1cccc(Cl)c1`
Result block: 2820

I: COc1ccc(C#N)c(CNC(=O)Cn2c(C)cnc(NCCc3ccccn3)c2=O)c1
II: COc1ccc(Cl)cc1CNC(=O)Cn1c(C)cnc(NCCc2ccccn2)c1=O
Query block: Sort I and II by Cmax descending and give the first. Returns: label corresponding to the selected item.
Result block: I
(I: 2260 nM, II: 1480 nM)

----------
test: Half life in dog at 1 mg/kg, po; assay type: ADME, organism-based, Canis lupus familiaris; design: dose 1 mg/kg, route oral; conditions: in vivo
Observable: half-life (h)

Query block: # query: half-life of entry `Cc1ccc(Cl)cc1CNC(=O)Cn1c(C)cnc(NCCc2ccccn2)c1=O`
Result block: 1.18

I: COc1ccc(Cl)cc1CNC(=O)Cn1c(C)cnc(NCCc2ccccn2)c1=O
II: COc1ccc(C#N)c(CNC(=O)Cn2c(C)cnc(NCCc3ccccn3)c2=O)c1
Query block: Sort I and II by half-life descending and give the first. Returns: label corresponding to the selected item.
Result block: II

P: Cc1ccc(C#N)c(CNC(=O)Cn2c(C)cnc(NCCc3ccccn3)c2=O)c1
Q: Cc1cnc(NCCc2ccccn2)c(=O)n1CC(=O)NCc1cc(Cl)ccc1OCC(F)(F)F
Query block: Sort P and Q by half-life descending and give the first. Returns: label corresponding to the selected item.
Result block: Q

----------
target: Prothrombin (Homo sapiens, UniProt P00734); assay: Inhibition of thrombin
Observable: Ki (nM)

Query block: # query: Ki of entry `COc1ccc(Cl)cc1CNC(=O)Cn1c(Cl)cnc(NCCc2cccc[n+]2[O-])c1=O`
Result block: 1.8

P: COc1ccc(C#N)c(CNC(=O)Cn2c(Cl)cnc(NCCc3ccccn3)c2=O)c1
Q: O=C(Cn1c(Cl)cnc(NCCc2cccc[n+]2[O-])c1=O)NCc1cc(Cl)ccc1Cl
Query block: For the pair P and Q , which entry has the numerically smaller recorded Ki? Returns: label corresponding to the selected item.
Result block: Q

A: COc1ccc(Cl)cc1CNC(=O)Cn1c(C)cnc(NCCc2ccccn2)c1=O
B: COc1ccc(C#N)c(CNC(=O)Cn2c(Cl)cnc(NCCc3cccc[n+]3[O-])c2=O)c1
Query block: For the pair A and B , which entry has the numerically smaller recorded Ki? Returns: label corresponding to the selected item.
Result block: B
(B: 1.1 nM, A: 2 nM)

P: Cc1cnc(NCCc2ccccn2)c(=O)n1CC(=O)NCc1cc(Cl)ccc1OCC(=O)NC1CCCNC1 (configuration not stated)
Q: Cc1cnc(NCCc2ccccn2)c(=O)n1CC(=O)NCc1cc(Cl)ccc1Cl
Query block: For the pair P and Q , which entry has the numerically smaller recorded Ki? Returns: label corresponding to the selected item.
Result block: P
